The measured values listed here are drawn from paper PMC3236397.

Molecular target: hERG (Homo sapiens)
Sequence (Q12809 whole entry): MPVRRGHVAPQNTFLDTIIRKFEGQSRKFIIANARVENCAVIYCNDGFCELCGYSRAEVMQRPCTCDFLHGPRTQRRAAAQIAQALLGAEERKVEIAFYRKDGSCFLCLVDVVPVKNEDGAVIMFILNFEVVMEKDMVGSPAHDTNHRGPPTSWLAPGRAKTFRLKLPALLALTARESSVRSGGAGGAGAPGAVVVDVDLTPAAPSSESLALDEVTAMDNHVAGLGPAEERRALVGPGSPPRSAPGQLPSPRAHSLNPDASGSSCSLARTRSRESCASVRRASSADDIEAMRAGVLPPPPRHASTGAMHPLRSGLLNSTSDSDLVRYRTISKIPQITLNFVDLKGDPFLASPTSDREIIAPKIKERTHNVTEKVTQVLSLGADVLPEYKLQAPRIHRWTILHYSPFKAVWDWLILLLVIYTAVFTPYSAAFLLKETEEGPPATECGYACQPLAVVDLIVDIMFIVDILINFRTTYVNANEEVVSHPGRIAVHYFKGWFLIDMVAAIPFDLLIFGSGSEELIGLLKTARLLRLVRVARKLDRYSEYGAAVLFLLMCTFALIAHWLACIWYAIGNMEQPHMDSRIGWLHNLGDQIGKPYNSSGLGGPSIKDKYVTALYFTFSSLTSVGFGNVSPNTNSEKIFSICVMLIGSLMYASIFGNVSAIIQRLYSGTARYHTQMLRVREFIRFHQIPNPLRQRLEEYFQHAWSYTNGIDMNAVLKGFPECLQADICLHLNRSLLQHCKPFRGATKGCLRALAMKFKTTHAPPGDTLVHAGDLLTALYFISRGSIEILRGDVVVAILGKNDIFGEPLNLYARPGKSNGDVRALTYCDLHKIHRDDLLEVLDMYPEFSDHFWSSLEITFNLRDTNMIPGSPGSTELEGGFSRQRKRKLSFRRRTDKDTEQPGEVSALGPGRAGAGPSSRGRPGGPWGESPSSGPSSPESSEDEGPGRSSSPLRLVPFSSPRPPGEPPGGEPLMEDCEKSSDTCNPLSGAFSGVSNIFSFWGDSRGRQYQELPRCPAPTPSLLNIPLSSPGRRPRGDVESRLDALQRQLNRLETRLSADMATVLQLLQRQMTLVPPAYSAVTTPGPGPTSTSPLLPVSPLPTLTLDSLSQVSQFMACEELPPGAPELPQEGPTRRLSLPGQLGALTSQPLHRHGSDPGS
Test: in vitro
Value type: inhibition at 10 µM

# Chemical smiles, Value type, Readout value
data = [
    ("Cc1ccc(-n2nc(C(C)(C)C)cc2NC(=O)Nc2ccc(OCCN3CCOCC3)c3ccccc23)cc1", "inhibition at 10 µM", "≥ 50%"),
]

----------
Biological target: Nav1.6 (Homo sapiens, UniProt Q9UQD0)
Sequence (Q9UQD0 whole entry): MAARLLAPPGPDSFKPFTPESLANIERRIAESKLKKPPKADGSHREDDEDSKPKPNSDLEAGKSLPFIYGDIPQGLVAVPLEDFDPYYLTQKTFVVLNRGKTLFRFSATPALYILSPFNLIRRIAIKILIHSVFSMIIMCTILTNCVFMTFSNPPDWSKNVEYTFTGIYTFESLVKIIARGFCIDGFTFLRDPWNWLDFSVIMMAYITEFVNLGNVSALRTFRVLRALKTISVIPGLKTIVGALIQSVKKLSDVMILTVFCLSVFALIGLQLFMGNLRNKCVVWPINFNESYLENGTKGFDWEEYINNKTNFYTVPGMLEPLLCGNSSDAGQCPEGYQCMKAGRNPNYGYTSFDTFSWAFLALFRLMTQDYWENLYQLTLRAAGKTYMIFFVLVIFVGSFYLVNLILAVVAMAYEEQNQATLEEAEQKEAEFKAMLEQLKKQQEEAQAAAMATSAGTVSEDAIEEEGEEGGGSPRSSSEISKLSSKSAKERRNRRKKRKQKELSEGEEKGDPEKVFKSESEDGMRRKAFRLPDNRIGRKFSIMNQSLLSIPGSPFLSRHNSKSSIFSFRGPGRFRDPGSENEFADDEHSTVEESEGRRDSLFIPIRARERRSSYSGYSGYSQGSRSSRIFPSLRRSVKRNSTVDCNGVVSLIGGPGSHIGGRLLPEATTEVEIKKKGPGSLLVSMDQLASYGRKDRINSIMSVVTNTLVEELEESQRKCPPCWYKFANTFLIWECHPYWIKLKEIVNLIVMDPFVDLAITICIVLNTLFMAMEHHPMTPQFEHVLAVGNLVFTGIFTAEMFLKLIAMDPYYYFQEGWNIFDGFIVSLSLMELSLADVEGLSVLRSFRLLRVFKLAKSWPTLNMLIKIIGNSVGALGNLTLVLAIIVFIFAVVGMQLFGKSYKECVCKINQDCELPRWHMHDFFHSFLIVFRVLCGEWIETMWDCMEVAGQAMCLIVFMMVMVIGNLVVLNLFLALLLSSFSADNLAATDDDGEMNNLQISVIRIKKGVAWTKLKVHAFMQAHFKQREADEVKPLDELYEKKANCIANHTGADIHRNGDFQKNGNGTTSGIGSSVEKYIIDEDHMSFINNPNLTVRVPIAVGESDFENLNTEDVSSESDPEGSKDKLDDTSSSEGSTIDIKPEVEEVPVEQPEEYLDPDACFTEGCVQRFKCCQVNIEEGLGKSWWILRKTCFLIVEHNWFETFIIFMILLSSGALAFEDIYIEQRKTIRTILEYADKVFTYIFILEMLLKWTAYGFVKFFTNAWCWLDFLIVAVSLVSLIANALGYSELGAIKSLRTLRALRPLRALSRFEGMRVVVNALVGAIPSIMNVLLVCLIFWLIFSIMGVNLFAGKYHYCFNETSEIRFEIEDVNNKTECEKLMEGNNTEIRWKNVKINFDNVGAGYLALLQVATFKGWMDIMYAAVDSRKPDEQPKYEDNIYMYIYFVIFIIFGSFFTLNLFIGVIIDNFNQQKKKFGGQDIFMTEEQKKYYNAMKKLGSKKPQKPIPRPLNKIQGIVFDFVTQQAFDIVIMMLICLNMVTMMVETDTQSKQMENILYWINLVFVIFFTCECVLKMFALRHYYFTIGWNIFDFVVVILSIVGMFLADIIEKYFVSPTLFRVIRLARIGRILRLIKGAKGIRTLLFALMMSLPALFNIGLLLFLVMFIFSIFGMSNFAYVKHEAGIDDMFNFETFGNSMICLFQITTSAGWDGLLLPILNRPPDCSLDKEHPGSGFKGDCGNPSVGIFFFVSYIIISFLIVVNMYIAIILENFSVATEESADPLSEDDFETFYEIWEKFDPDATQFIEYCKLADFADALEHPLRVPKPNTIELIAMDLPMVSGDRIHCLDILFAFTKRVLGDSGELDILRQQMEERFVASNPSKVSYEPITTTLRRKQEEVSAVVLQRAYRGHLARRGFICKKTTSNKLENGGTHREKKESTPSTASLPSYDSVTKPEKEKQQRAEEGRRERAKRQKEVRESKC
Assay: IonWorks Quattro 2-pulse inactivated-state protocol
Type: cell-based
Conditions: Predicted IC50 potency values Nav1.6 P1, Pulse 1, 2-pulse protocol

# Chemical smiles, Display unit, IC50
rows = [
    ("CCN(CC)CC(=O)Nc1c(C)cccc1C", "µM", 270),
]
